- tgt: HLA-B*15:42
- assay-overview: IEDB peptide-MHC binding, purified MHC/competitive/fluorescence; filed as Kd, often an IC50 or EC50 that approximates it; bounds were set here for any values at or beyond the usual limits of such assays
- stated-conditions: source organism: human gammaherpesvirus 4
measured-quantity: Kd

get_value(item= FTASVSTVV , readout=Kd) returns ≥ 5 µM

* * *

- tgt: HLA-B*44:03
- assay-overview: IEDB peptide-MHC binding, purified MHC/competitive/radioactivity; filed as Kd, often an IC50 or EC50 that approximates it; bounds were set here for any values at or beyond the usual limits of such assays
- stated-conditions: source organism: Mammarenavirus machupoense
Kd listing for selected sequences.
All answers are understood in µM, so give the number only.

KEINLLSQT ... 14.3

get_value(item= AEWLEMICF , readout=Kd) returns 0.0681

* * *

- tgt: HLA-A*26:01
- assay-overview: IEDB peptide-MHC binding, purified MHC/direct/fluorescence; filed as Kd, often an IC50 or EC50 that approximates it; bounds were set here for any values at or beyond the usual limits of such assays
- stated-conditions: source organism: Escherichia coli
measured-quantity: pKd
As a rule, pKd stands for the negative log10 of the concentration, concentration in M.

get_value(item= SSMNSDAAY , readout=pKd) returns 7.56

* * *

- tgt: HLA-B*27:05
- assay-overview: IEDB peptide-MHC binding, purified MHC/direct/fluorescence; filed as Kd, often an IC50 or EC50 that approximates it; bounds were set here for any values at or beyond the usual limits of such assays
- stated-conditions: source organism: Yersinia pestis
pKd: −log10 of the molar value.
measured-quantity: pKd

get_value(item= RPQLWRYRW , readout=pKd) returns ≤ 4.70

* * *

- tgt: HLA-A*68:01
- assay-overview: IEDB peptide-MHC binding, purified MHC/competitive/radioactivity; filed as Kd, often an IC50 or EC50 that approximates it; bounds were set here for any values at or beyond the usual limits of such assays
- stated-conditions: source organism: Dengue virus 4 Dominica/814669/1981
measured-quantity: Kd (nM)
All answers are understood in nM, so give the number only.

get_value(item= MTLMKGASR , readout=Kd) returns 52.3

* * *

- tgt: HLA-B*15:17
- assay-overview: IEDB peptide-MHC binding, purified MHC/direct/fluorescence; filed as Kd, often an IC50 or EC50 that approximates it; bounds were set here for any values at or beyond the usual limits of such assays
- stated-conditions: source organism: Influenza A virus (A/duck/Vietnam/15/2003(H5N1))
pKd: −log10 of the molar value.
measured-quantity: pKd

get_value(item= SHEGEGIPL , readout=pKd) returns ≤ 4.70

* * *

- tgt: HLA-B*07:02
- assay-overview: IEDB peptide-MHC binding, purified MHC/competitive/radioactivity; filed as Kd, often an IC50 or EC50 that approximates it; bounds were set here for any values at or beyond the usual limits of such assays
- stated-conditions: source organism: Dengue virus 3 Martinique/1243/1999
measured-quantity: pKd
As a rule, pKd stands for the negative log10 of the concentration, concentration in M.

get_value(item= VPMSTYGWNI , readout=pKd) returns 7.22

* * *

- tgt: HLA-B*48:01
- assay-overview: IEDB peptide-MHC binding, purified MHC/direct/fluorescence; filed as Kd, often an IC50 or EC50 that approximates it; bounds were set here for any values at or beyond the usual limits of such assays
- stated-conditions: source organism: Francisella tularensis subsp. holarctica LVS
measured-quantity: Kd

Measured Kd (HLA-B*48:01), entry KRLSVNQKY : ≥ 20 µM
